Numbers sourced from patent US20230365649A1.

tested.on: T1, KRAS wild type (WT 25-mer) peptide on HLA-DQA1*05:01 / HLA-DQB1*03:01 (human)
T1 peptide: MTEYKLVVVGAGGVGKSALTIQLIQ
assay.summary: activation reporter or marker

binder	binding result
4400 TCR-C (TCR, V domains shown) Valpha: QKITQTQPGMFVQEKEAVTLDCTYDTSDPSYGLFWYKQPSSGEMIFLIYQGSYDQQNATEGRYSLNFQKARKSANLVISASQLGDSAMYFCAMRERTGTASKLTFGTGTRLQVTL Vbeta: DVKVTQSSRYLVKRTGEKVFLECVQDMDHENMFWYRQDPGLGLRLIYFSYDVKMKEKGDIPEGYSVSREKKERFSLILESASTNQTSMYLCASSPGTENSPLHFGNGTRLTVT	no recognition
4400 TCR-A3 (TCR, V domains shown) Valpha: KTTQPNSMESNEEEPVHLPCNHSTISGTDYIHWYRQLPSQGPEYVIHGLTSNVNNRMASLAIAEDRKSSTLILHRATLRDAAVYYCILRAPSGTYKYIFGTGTRLKVLA Vbeta: DVKVTQSSRYLVKRTGEKVFLECVQDMDHENMFWYRQDPGLGLRLIYFSYDVKMKEKGDIPEGYSVSREKKERFSLILESASTNQTSMYLCASRQGNTGELFFGEGSRLTVL	no recognition
4400 TCR-J2 (TCR, V domains shown) Valpha: NSVTQMEGPVTLSEEAFLTINCTYTATGYPSLFWYVQYPGEGLQLLLKATKADDKGSNKGFEATYRKETTSFHLEKGSVQVSDSAVYFCALRLSGAGSYQLTFGKGTKLSVIP Vbeta: DVKVTQSSRYLVKRTGEKVFLECVQDMDHENMFWYRQDPGLGLRLIYFSYDVKMKEKGDIPEGYSVSREKKERFSLILESASTNQTSMYLCASSQGNTGELFFGEGSRLTVL	no recognition
